Recorded values, source ChEMBL document CHEMBL1121782.

Species on record: Mus musculus
test: compound was evaluated for its ability to inhibit DNA synthesis in Ehrlich ascites tumor cells by irradiation (365 nM)
Type: functional
Consider the following compounds and their measured D50 readings.
I only need the number, in quanta*10e-18, no unit after it.

{"smiles_text": "Cc1oc2ccc3c(C)cc(=O)oc3c2c1CO", "D50, quanta*10e-18": 9.2}
{"smiles_text": "Cc1oc2ccc3c(C)cc(=O)oc3c2c1CN.Cl", "D50, quanta*10e-18": 100}
{"smiles_text": "COCc1c(C)oc2ccc3c(C)cc(=O)oc3c12", "D50, quanta*10e-18": 22.7}

API: the following record is the query input.
Find the recorded D50 belonging to Cc1cc2c(ccc3c(C)cc(=O)oc32)o1 and report it.
10.8
